Some sequences, each annotated with its measured PBM binding z-score.
System: PPARg:RXRa 30nM:10nM, anti-RXR (NR concentration 30 nM, RXRa partner concentration 10 nM)
Test: PBM binding z-score (relative to random genomic background probes); higher = stronger binding; sequences stand for … in GC…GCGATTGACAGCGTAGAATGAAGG
Please respond with just the number, no unit label.

Solved entries (count: 5):
Consider the sequence `AGTCAAAGTTCAGGACGAGGTAACGTAGAGCACG` tested on PPARg:RXRa 30nM:10nM, anti-RXR (NR concentration 30 nM, RXRa partner concentration 10 nM); state its PBM binding z-score.
2.13

Consider the sequence `GCAGACAGGTGAAACTCAGGTAACTCAGGGTGGC` tested on PPARg:RXRa 30nM:10nM, anti-RXR (NR concentration 30 nM, RXRa partner concentration 10 nM); state its PBM binding z-score.
-0.602

Consider the sequence `AATACTGGGTCATCGTAGGCCAGAGTACGCACAG` tested on PPARg:RXRa 30nM:10nM, anti-RXR (NR concentration 30 nM, RXRa partner concentration 10 nM); state its PBM binding z-score.
3.02

Consider the sequence `CCTTACGGGACACGAGGTTATAGCACGACGAGCG` tested on PPARg:RXRa 30nM:10nM, anti-RXR (NR concentration 30 nM, RXRa partner concentration 10 nM); state its PBM binding z-score.
0.0152

Consider the sequence `TATACAGGGTCAAAGGCCAGGGTACGAATGTCGA` tested on PPARg:RXRa 30nM:10nM, anti-RXR (NR concentration 30 nM, RXRa partner concentration 10 nM); state its PBM binding z-score.
5.77

More entries:
Consider the sequence `TCATATAGGTAATACAGGTGAAATTCGGCATCTA` tested on PPARg:RXRa 30nM:10nM, anti-RXR (NR concentration 30 nM, RXRa partner concentration 10 nM); state its PBM binding z-score.
3.85

Consider the sequence `ATCTCTAGGTAACCAAGTTCAGTGAGTGCCGAAC` tested on PPARg:RXRa 30nM:10nM, anti-RXR (NR concentration 30 nM, RXRa partner concentration 10 nM); state its PBM binding z-score.
-0.0594

Consider the sequence `CCAGACAGGTGAGAAGTTAACTCAGCCTCGATTA` tested on PPARg:RXRa 30nM:10nM, anti-RXR (NR concentration 30 nM, RXRa partner concentration 10 nM); state its PBM binding z-score.
-0.0978

Consider the sequence `AATACAGGGTCATCGTAGGCCATAGTACGCACAG` tested on PPARg:RXRa 30nM:10nM, anti-RXR (NR concentration 30 nM, RXRa partner concentration 10 nM); state its PBM binding z-score.
2.98

Consider the sequence `GGAACGAGGGCAAGGTGATAGCAGAGTTTGATGG` tested on PPARg:RXRa 30nM:10nM, anti-RXR (NR concentration 30 nM, RXRa partner concentration 10 nM); state its PBM binding z-score.
0.199

Consider the sequence `GTACCAAGGTGAATACGTCGTTGATGAGTAGGCG` tested on PPARg:RXRa 30nM:10nM, anti-RXR (NR concentration 30 nM, RXRa partner concentration 10 nM); state its PBM binding z-score.
0.117

Consider the sequence `AACACAGGGTCATCGTAGGCCAGAGTACGCACAG` tested on PPARg:RXRa 30nM:10nM, anti-RXR (NR concentration 30 nM, RXRa partner concentration 10 nM); state its PBM binding z-score.
1.96

Consider the sequence `ATCGAAAGGTCGACAAGGTGAGTATACACCGTTT` tested on PPARg:RXRa 30nM:10nM, anti-RXR (NR concentration 30 nM, RXRa partner concentration 10 nM); state its PBM binding z-score.
1.2

Consider the sequence `ATATGTACGTTAAGGGTCATTCAGGTTGGTTCGC` tested on PPARg:RXRa 30nM:10nM, anti-RXR (NR concentration 30 nM, RXRa partner concentration 10 nM); state its PBM binding z-score.
4.9

Consider the sequence `CCTGCTAGGGCATGGTCAGCTAATCTACAGTATG` tested on PPARg:RXRa 30nM:10nM, anti-RXR (NR concentration 30 nM, RXRa partner concentration 10 nM); state its PBM binding z-score.
-0.463

Consider the sequence `ATCGACAGGTCGACGAGGTGAGTATACACCGTTT` tested on PPARg:RXRa 30nM:10nM, anti-RXR (NR concentration 30 nM, RXRa partner concentration 10 nM); state its PBM binding z-score.
0.0912

Consider the sequence `CGTCCAAGGGCAGAGAGGTCAGTGAATGCCGAGT` tested on PPARg:RXRa 30nM:10nM, anti-RXR (NR concentration 30 nM, RXRa partner concentration 10 nM); state its PBM binding z-score.
-0.361

* * *

Tested on: LXRb homodimer (NR concentration 270 nM)
Assay: PBM binding z-score (relative to random genomic background probes); higher = stronger binding; sequences stand for … in GC…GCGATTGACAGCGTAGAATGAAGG
Assign class by PBM binding z-score: not lower than -0.5 means 1 (yes); lower than -0.5 means 0 (no).

Could you verify whether the entry `GCTTGTAGATCAAGTTTAAGAAAGACTAAGCTAA` shows PBM binding z-score of no less than -0.5?
1 (yes)

Could you verify whether the entry `TCTATTTGGTCACGGAGGTCACACACGACGGGTA` shows PBM binding z-score of no less than -0.5?
1 (yes)

Could you verify whether the entry `GTACCGAGGTGAATAGGTCGTTGATGAGTAGGCG` shows PBM binding z-score of no less than -0.5?
0 (no)

Could you verify whether the entry `AGAATGAGGTTACCAAAGACCAGGGAAACGCTTG` shows PBM binding z-score of no less than -0.5?
1 (yes)

Could you verify whether the entry `CCGACTGGTGCAAAGGTTACCATACTCAGTACGA` shows PBM binding z-score of no less than -0.5?
1 (yes)

More entries:
Could you verify whether the entry `GGAACGAGGGCATTCCAGTTGATAGCATGGCGAT` shows PBM binding z-score of no less than -0.5?
1 (yes)

Could you verify whether the entry `TCTTGGAGATCAGCAGGTTAAGAAAGCTGGCCAA` shows PBM binding z-score of no less than -0.5?
0 (no)

Could you verify whether the entry `GCTCGGAGGACCAGGTCAGAGCTTTGTCCGTAGA` shows PBM binding z-score of no less than -0.5?
0 (no)

Could you verify whether the entry `CAGCCTAGGTCAGTGCCAGTATAGGAGGAACGTT` shows PBM binding z-score of no less than -0.5?
0 (no)

Could you verify whether the entry `CGTCAAAGTTCCAGGTAACGTAACAGAAAGCAGC` shows PBM binding z-score of no less than -0.5?
1 (yes)

Could you verify whether the entry `CCGACTGGGGCATAAGGTTACCATCAGCCAGCCC` shows PBM binding z-score of no less than -0.5?
0 (no)

Could you verify whether the entry `GCTATTAGTTGAAAGGGCAGCCGAATGATTCTCG` shows PBM binding z-score of no less than -0.5?
1 (yes)

* * *

Tested on: RARb:RXRa (NR concentration 270 nM, RXRa partner concentration 90 nM)
Test: PBM binding z-score (relative to random genomic background probes); higher = stronger binding; sequences stand for … in GC…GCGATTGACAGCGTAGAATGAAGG
Metric: PBM binding z-score
Please respond with just the number, no unit label.

Solved entries (count: 4):
Recall and state the measured PBM binding z-score for `AATACAGGGGCATCGTAGGCCAGAGTACGCACAG` .
1.48

Recall and state the measured PBM binding z-score for `ATATGTAGGTTATCTGGTCATTCAGTTTGCGCAT` .
1.42

Recall and state the measured PBM binding z-score for `AGAATGAGGTTATTAAGAACAGGGAATTGCGGTC` .
1.4

Recall and state the measured PBM binding z-score for `CCTACTGGTCCATCAGGTCATTGATATCAACGTT` .
1.87

More entries:
Recall and state the measured PBM binding z-score for `ACAGACAGGTGAGTGAAGGTAACTCAGCTGGACG` .
0.67

Recall and state the measured PBM binding z-score for `GCTCGGAGGACAAGCTCAGAGCTTTGTCCGTAGA` .
0.862

Recall and state the measured PBM binding z-score for `CGTCCAAGCTCATAGGAGGTCAGTGAAGACAGAT` .
2.03

Recall and state the measured PBM binding z-score for `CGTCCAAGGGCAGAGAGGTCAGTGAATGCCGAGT` .
3.92

Recall and state the measured PBM binding z-score for `CAAATTAGGTCACGAAAGGTCAAAGTCGAATGAC` .
5.8

* * *

Tested on: LXRb homodimer (NR concentration 270 nM)
Assay: PBM binding z-score (relative to random genomic background probes); higher = stronger binding; sequences stand for … in GC…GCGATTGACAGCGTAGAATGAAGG
Some sequences, each annotated with its measured PBM binding z-score.

Recall and state the measured PBM binding z-score for `CGAACGAGGGCATGTGTTGATAGCAAATGCCGAT` .
-0.807

Recall and state the measured PBM binding z-score for `CCGACTGGGGCAGAAGGGTTACCATACCATCCGG` .
-0.958

Recall and state the measured PBM binding z-score for `CCGACTGGGGCATAAGGTTACCTTAAGCCAGCCC` .
-1.36

More entries:
Recall and state the measured PBM binding z-score for `CCTACTGGGCCATTAGGTCATTGATATCAACGTT` .
-0.52

Recall and state the measured PBM binding z-score for `CACACAGGGTCAGCTAGGCCAGAGTAGGGACGGC` .
0.152

Recall and state the measured PBM binding z-score for `CCTACTGGGCCAAAGGTCAATGATTCCAATGCTC` .
0.165

Every entry's value here was drawn from the supplement of paper PMC6555819.
